FYI, the data here is from ChEMBL document CHEMBL1140177.

test: Half life in Beagle dog at 2 mg/kg, po and 0.25 mg/kg, iv; assay type: ADME, organism-based, Canis lupus familiaris; settings: in vivo
measure_name: half-life (h)
Express your answer in h, writing the number without its unit.

INPUT: Please give the measured half-life for this compound: N#Cc1cc(Cl)cc(Oc2cc(OCc3n[nH]c4ncccc34)ccc2Cl)c1
OUTPUT: 11.8

====

test system: Human immunodeficiency virus 1; assay: Antiviral activity against wild type HIV1 in presence of 40% normal human serum; format: functional, organism-based
measure_name: pIC50
For clarity, pIC50 is expressed as the negative log10 of concentration in mol/L.

INPUT: Give Human immunodeficiency virus 1 pIC50 for N#Cc1cc(Cl)cc(Oc2cc(OCc3n[nH]c4ncccc34)ccc2Cl)c1
OUTPUT: 8.82

***
INPUT: Param readout= pIC50; system= Human immunodeficiency virus 1; entry= N#Cc1cc(Cl)cc(Oc2cc(OCc3n[nH]c4nc(N)ccc34)ccc2Cl)c1 ; returns value.
OUTPUT: 8.87

====

experiment: Solubility at pH 2; type: physicochemical; conditions: buffer
measure_name: solubility (µg/mL)
Write down the numeric answer in µg/mL and omit the unit.

INPUT: # lookup: solubility of N#Cc1cc(Cl)cc(Oc2cc(OCc3n[nH]c4nc(N)ccc34)ccc2Cl)c1
OUTPUT: 10

====

assay: Clearance in Sprague-Dawley rat at 10 mg/kg, po and 3 mg/kg, iv; assay type: ADME, organism-based; settings: in vivo
measure_name: clearance (mL/min/kg)
Give the value in mL/min/kg but do not write mL/min/kg after it.

INPUT: Bench note: what clearance did N#Cc1cc(Cl)cc(Oc2cc(OCc3n[nH]c4nc(N)ccc34)ccc2Cl)c1 show?
OUTPUT: 9

====

test: Volume of distribution in Sprague-Dawley rat at 10 mg/kg, po and 2 mg/kg, iv; type: ADME, organism-based; conditions: in vivo
measure_name: Vd
Show the value, then the unit it is measured in.

INPUT: So what does the record say about Vd for N#Cc1cc(Cl)cc(Oc2cc(OCc3n[nH]c4ncccc34)ccc2Cl)c1 ?
OUTPUT: 5.3 L/kg

====

assay: Oral bioavailability in Beagle dog at 10 mg/kg; type: ADME, organism-based, Canis lupus familiaris; conditions: in vivo
measure_name: bioavailability
Write your answer as a measured quantity: the number, then the unit.

INPUT: Look up bioavailability for this compound: N#Cc1cc(Cl)cc(Oc2cc(OCc3n[nH]c4nc(N)ccc34)ccc2Cl)c1
OUTPUT: 47%

====

assay: Volume of distribution in Beagle dog at 2 mg/kg, po and 0.25 mg/kg, iv; assay type: ADME, organism-based, Canis lupus familiaris; conditions: in vivo
measure_name: Vd (L/kg)
The reply should be a number in L/kg, with the unit left off.

INPUT: Which value of Vd has been reported for N#Cc1cc(Cl)cc(Oc2cc(OCc3n[nH]c4ncccc34)ccc2Cl)c1 in the records?
OUTPUT: 2.6

====

assay: Clearance in Beagle dog at 10 mg/kg, po and 2 mg/kg, iv; type: ADME, organism-based, Canis lupus familiaris; conditions: in vivo
measure_name: clearance (L/h/kg)
Answer format: numeric, L/h/kg implied, no suffix.

INPUT: Given the compound N#Cc1cc(Cl)cc(Oc2cc(OCc3n[nH]c4nc(N)ccc34)ccc2Cl)c1 , what is its reported clearance?
OUTPUT: 0.348

====

Reported IC50 values for a set of compounds
test system: Human immunodeficiency virus 1; test: Antiviral activity against HIV1 with reverse transcriptase L100I mutant in presence of 40% normal human serum; type: functional, organism-based
Write it as a number; the unit nM goes unstated.

INPUT: Name the reported IC50 value associated with the compound N#Cc1cc(Cl)cc(Oc2cc(OCc3n[nH]c4ncccc34)ccc2Cl)c1
OUTPUT: 1.1

---
INPUT: What IC50 value was documented for this compound, N#Cc1cc(Cl)cc(Oc2cc(OCc3n[nH]c4nc(N)ccc34)ccc2Cl)c1 ?
OUTPUT: 1.8

====

molecular target: Human immunodeficiency virus type 1 reverse transcriptase (Human immunodeficiency virus 1); assay: Inhibition of wild type HIV1 RT polymerase by SPA
measure_name: IC50 (nM)
The reply should be a number in nM, with the unit left off.

Reference set (3 entries):
INPUT: Please look up its IC50: N#Cc1cc(Cl)cc(Oc2cc(OCc3n[nH]c4ccncc34)ccc2Cl)c1
OUTPUT: 1.2

INPUT: Returns the measured IC50 for the input molecule. Input: N#Cc1cc(Cl)cc(Oc2cc(OCc3n[nH]c4cnccc34)ccc2Cl)c1
OUTPUT: 0.8

INPUT: May I ask what IC50 has been recorded for N#Cc1cc(Cl)cc(Oc2cc(OCc3n[nH]c4cccnc34)ccc2Cl)c1 ?
OUTPUT: 3.6

// moving on: another record for IC50
INPUT: For N#Cc1cc(Cl)cc(Oc2cc(OCc3n[nH]c4ncccc34)ccc2Cl)c1 , what is its reported IC50?
OUTPUT: 0.4

====

test: Volume of distribution in Beagle dog at 10 mg/kg, po and 2 mg/kg, iv; format: ADME, organism-based, Canis lupus familiaris; details: in vivo
measure_name: Vd (L/kg)
State just the number; it will be interpreted in L/kg.

INPUT: What does the record list as Vd for N#Cc1cc(Cl)cc(Oc2cc(OCc3n[nH]c4nc(N)ccc34)ccc2Cl)c1 ?
OUTPUT: 1.7

====

assay: Oral bioavailability in Sprague-Dawley rat at 10 mg/kg; type: ADME, organism-based; settings: in vivo
Below, each entry is listed with its recorded bioavailability.
Entry rule: numbers only, all in %.

INPUT: Fill blank: measured bioavailability of the compound N#Cc1cc(Cl)cc(Oc2cc(OCc3n[nH]c4ncccc34)ccc2Cl)c1 is ____.
OUTPUT: 58

Next:
INPUT: Dear colleague, I am looking for the recorded bioavailability of the following compound: N#Cc1cc(Cl)cc(Oc2cc(OCc3n[nH]c4nc(N)ccc34)ccc2Cl)c1
OUTPUT: 52

====

assay: Half life in Sprague-Dawley rat at 10 mg/kg, po and 2 mg/kg, iv; format: ADME, organism-based; conditions: in vivo
measure_name: half-life (min)
# unit: min | format: bare number

INPUT: Would you kindly share the measured half-life for N#Cc1cc(Cl)cc(Oc2cc(OCc3n[nH]c4ncccc34)ccc2Cl)c1 ?
OUTPUT: 246

====

assay: Oral bioavailability in Beagle dog at 2 mg/kg; type: ADME, organism-based, Canis lupus familiaris; conditions: in vivo
measure_name: bioavailability
Reply with the number, then its unit.

INPUT: Field request: bioavailability | item: N#Cc1cc(Cl)cc(Oc2cc(OCc3n[nH]c4ncccc34)ccc2Cl)c1
OUTPUT: 17%

====

# AUC per record follows
assay: AUC in rhesus monkey at 10 mg/kg, po; assay type: ADME, organism-based, Macaca mulatta; set-up: dose 10 mg/kg, route oral; conditions: plasma
Express the result in µM·h but write the number alone.

INPUT: State the recorded AUC for this entry: N#Cc1cc(Cl)cc(Oc2cc(OCc3n[nH]c4nc(N)ccc34)ccc2Cl)c1
OUTPUT: 0.3

INPUT: Give the measured AUC of N#Cc1cc(Cl)cc(Oc2cc(OCc3n[nH]c4ncccc34)ccc2Cl)c1 .
OUTPUT: 0.3

====

tested on: Human immunodeficiency virus 1; experiment: Antiviral activity against wild type HIV1 infected in human MT4 cells after 72 hrs in presence of 50% normal human serum; type: functional; conditions: Human immunodeficiency virus 1, MT4, 72 h; read-out: CIC95
measure_name: log10 IC95 (log10 of the value in nM)
Scale type: logarithmic (base 10). Underlying IC95 unit: nM.

Solved cases below.
INPUT: # get_value(readout='log10 IC95', item= O=C1Nc2ccc(Cl)cc2[C@@](C#CC2CC2)(C(F)(F)F)O1 )
OUTPUT: 1.62

INPUT: Field request: log10 IC95 | item: N#Cc1cc(Cl)cc(Oc2cc(OCc3n[nH]c4ccncc34)ccc2Cl)c1
OUTPUT: 2.49

INPUT: Form field: reported log10 IC95 of N#Cc1cc(Cl)cc(Oc2cc(OCc3n[nH]c4nc(N)ccc34)ccc2Cl)c1
OUTPUT: 1.53

INPUT: Requested field: log10 IC95. Item: N#Cc1cc(Cl)cc(Oc2cc(OCc3n[nH]c4cnccc34)ccc2Cl)c1
OUTPUT: 1.53

INPUT: Recorded log10 IC95 for N#Cc1cc(Cl)cc(Oc2cc(OCc3n[nH]c4ncccc34)ccc2Cl)c1 , please?
OUTPUT: 1.53

Others:
INPUT: Param item = N#Cc1cc(Cl)cc(Oc2cc(OCc3n[nH]c4cccnc34)ccc2Cl)c1 ; retrieve measured log10 IC95.
OUTPUT: 2.96

INPUT: Which log10 IC95 reading was recorded for the compound N#Cc1cc(Cl)cc(Oc2cc(OCc3n[nH]c4ccccc34)ccc2Cl)c1 ?
OUTPUT: 2.06

====

experiment: Clearance in Sprague-Dawley rat at 10 mg/kg, po and 2 mg/kg, iv; type: ADME, organism-based; conditions: in vivo
measure_name: clearance

INPUT: Data request, read-out clearance, for N#Cc1cc(Cl)cc(Oc2cc(OCc3n[nH]c4ncccc34)ccc2Cl)c1
OUTPUT: 28 mL/min/kg
